# Method Summary: self-splicing fitness, log relative to wild type (ln ratio); higher = more splicing; Tetrahymena group I intron in knt gene, E. coli kanamycin selection, DiMSum; sequences stand for … in CUCUCU…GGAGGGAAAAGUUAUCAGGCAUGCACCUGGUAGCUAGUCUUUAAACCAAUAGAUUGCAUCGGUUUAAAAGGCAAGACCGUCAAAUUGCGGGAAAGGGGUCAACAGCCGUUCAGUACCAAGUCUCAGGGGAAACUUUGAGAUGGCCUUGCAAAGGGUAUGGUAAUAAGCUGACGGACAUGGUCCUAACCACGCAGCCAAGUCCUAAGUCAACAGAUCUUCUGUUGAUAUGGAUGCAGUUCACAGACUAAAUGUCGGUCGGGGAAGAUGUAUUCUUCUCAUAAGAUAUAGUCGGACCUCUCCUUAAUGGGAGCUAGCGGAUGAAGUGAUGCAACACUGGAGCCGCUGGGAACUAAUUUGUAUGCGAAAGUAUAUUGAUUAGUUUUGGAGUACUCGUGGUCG;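 also: selection with 25 µg/mL kanamycin versus none on LB agar overnight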
# Condition Summary: 30 °C
Threshold check on self-splicing fitness (ln): at or above -2 gives Criterion met, strictly below gives Criterion not met.

Request: Tell me whether self-splicing fitness (ln) is at least -2 here: "UUCUAGCAAUAUUACGGCCU"
Response: Criterion not met

Request: Tell me whether self-splicing fitness (ln) is at least -2 here: "UGAGAGCAAUAUUACGACUC"
Response: Criterion not met

Request: Tell me whether self-splicing fitness (ln) is at least -2 here: "CACUAGCAAUAUUACGUGUU"
Response: Criterion not met

Request: Tell me whether self-splicing fitness (ln) is at least -2 here: "AGCUAGCAAUAUUACGGCCU"
Response: Criterion met

Request: Tell me whether self-splicing fitness (ln) is at least -2 here: "GAGAAGCAAUAUUACGUGAA"
Response: Criterion met

Request: Tell me whether self-splicing fitness (ln) is at least -2 here: "GCGCAGCAAUAUUACGGGAG"
Response: Criterion not met

Request: Tell me whether self-splicing fitness (ln) is at least -2 here: "GCCCAGCAAUAUUACGCUGU"
Response: Criterion met

Request: Tell me whether self-splicing fitness (ln) is at least -2 here: "ACAUAGCAAUAUUACGACUU"
Response: Criterion met

Request: Tell me whether self-splicing fitness (ln) is at least -2 here: "CCAGAGCAAUAUUACGUGAG"
Response: Criterion met

Request: Tell me whether self-splicing fitness (ln) is at least -2 here: "AGGUAGCAAUAUUACGACCA"
Response: Criterion met

Request: Tell me whether self-splicing fitness (ln) is at least -2 here: "ACGCAGCAAUAUUACGAGAU"
Response: Criterion not met

Request: Tell me whether self-splicing fitness (ln) is at least -2 here: "UGUGAGCAAUAUUACGGCUC"
Response: Criterion not met

Request: Tell me whether self-splicing fitness (ln) is at least -2 here: "UAAAAGCAAUAUUACGAUAC"
Response: Criterion not met

Request: Tell me whether self-splicing fitness (ln) is at least -2 here: "AACGAGCAAUAUUACGUUCU"
Response: Criterion not met

Request: Tell me whether self-splicing fitness (ln) is at least -2 here: "GUAAAGCAAUAUUACGAUGA"
Response: Criterion met

Request: Tell me whether self-splicing fitness (ln) is at least -2 here: "UAGAAGCAAUAUUACGAGCU"
Response: Criterion not met

Request: Tell me whether self-splicing fitness (ln) is at least -2 here: "CAGCAGCAAUAUUACGGAGU"
Response: Criterion not met

Request: Tell me whether self-splicing fitness (ln) is at least -2 here: "GAGCAGCAAUAUUACGGCAU"
Response: Criterion met

Request: Tell me whether self-splicing fitness (ln) is at least -2 here: "UUAUAGCAAUAUUACGCGUU"
Response: Criterion not met

Request: Tell me whether self-splicing fitness (ln) is at least -2 here: "ACUUAGCAAUAUUACGUUCG"
Response: Criterion met

Request: Tell me whether self-splicing fitness (ln) is at least -2 here: "UCAAAGCAAUAUUACGAGGG"
Response: Criterion not met

Request: Tell me whether self-splicing fitness (ln) is at least -2 here: "UAAAAGCAAUAUUACGGCUA"
Response: Criterion met

Request: Tell me whether self-splicing fitness (ln) is at least -2 here: "GACCAGCAAUAUUACGGGCC"
Response: Criterion not met

Request: Tell me whether self-splicing fitness (ln) is at least -2 here: "AGAGAGCAAUAUUACGACAG"
Response: Criterion not met

Request: Tell me whether self-splicing fitness (ln) is at least -2 here: "GACUAGCAAUAUUACGUGAG"
Response: Criterion not met

Request: Tell me whether self-splicing fitness (ln) is at least -2 here: "GUCCAGCAAUAUUACGCCAC"
Response: Criterion not met

Request: Tell me whether self-splicing fitness (ln) is at least -2 here: "UCGAAGCAAUAUUACGGAUU"
Response: Criterion not met

Request: Tell me whether self-splicing fitness (ln) is at least -2 here: "CUAAAGCAAUAUUACGUUCU"
Response: Criterion not met

Request: Tell me whether self-splicing fitness (ln) is at least -2 here: "CUCCAGCAAUAUUACGGGUG"
Response: Criterion not met

Request: Tell me whether self-splicing fitness (ln) is at least -2 here: "GGUCAGCAAUAUUACGAUUC"
Response: Criterion met

Request: Tell me whether self-splicing fitness (ln) is at least -2 here: "GCAAAGCAAUAUUACGAAUG"
Response: Criterion not met

Request: Tell me whether self-splicing fitness (ln) is at least -2 here: "UACUAGCAAUAUUACGCUCC"
Response: Criterion not met

Request: Tell me whether self-splicing fitness (ln) is at least -2 here: "AUGAAGCAAUAUUACGAUGU"
Response: Criterion met

Request: Tell me whether self-splicing fitness (ln) is at least -2 here: "AUUAAGCAAUAUUACGAGUG"
Response: Criterion not met

Request: Tell me whether self-splicing fitness (ln) is at least -2 here: "UUUUAGCAAUAUUACGCGCG"
Response: Criterion met

Request: Tell me whether self-splicing fitness (ln) is at least -2 here: "UAUAAGCAAUAUUACGAGUG"
Response: Criterion met

Request: Tell me whether self-splicing fitness (ln) is at least -2 here: "UGUUAGCAAUAUUACGAUGU"
Response: Criterion met

Request: Tell me whether self-splicing fitness (ln) is at least -2 here: "UAAUAGCAAUAUUACGAGGA"
Response: Criterion not met

Request: Tell me whether self-splicing fitness (ln) is at least -2 here: "GGGCAGCAAUAUUACGUUUA"
Response: Criterion met

Request: Tell me whether self-splicing fitness (ln) is at least -2 here: "ACCAAGCAAUAUUACGGCCG"
Response: Criterion met

Request: Tell me whether self-splicing fitness (ln) is at least -2 here: "UCUCAGCAAUAUUACGCAUA"
Response: Criterion not met

Request: Tell me whether self-splicing fitness (ln) is at least -2 here: "AUGCAGCAAUAUUACGCCUA"
Response: Criterion met

Request: Tell me whether self-splicing fitness (ln) is at least -2 here: "CAUGAGCAAUAUUACGCACG"
Response: Criterion met

Request: Tell me whether self-splicing fitness (ln) is at least -2 here: "AACCAGCAAUAUUACGCCCG"
Response: Criterion met

Request: Tell me whether self-splicing fitness (ln) is at least -2 here: "GAACAGCAAUAUUACGUUUA"
Response: Criterion met

Request: Tell me whether self-splicing fitness (ln) is at least -2 here: "AUGGAGCAAUAUUACGGAGA"
Response: Criterion not met

Request: Tell me whether self-splicing fitness (ln) is at least -2 here: "GUGAAGCAAUAUUACGACAG"
Response: Criterion not met

Request: Tell me whether self-splicing fitness (ln) is at least -2 here: "UUCCAGCAAUAUUACGGGGC"
Response: Criterion not met

Request: Tell me whether self-splicing fitness (ln) is at least -2 here: "CUGAAGCAAUAUUACGACUA"
Response: Criterion met

Request: Tell me whether self-splicing fitness (ln) is at least -2 here: "AUAAAGCAAUAUUACGACUA"
Response: Criterion met

Request: Tell me whether self-splicing fitness (ln) is at least -2 here: "GCUUAGCAAUAUUACGCUCC"
Response: Criterion met

Request: Tell me whether self-splicing fitness (ln) is at least -2 here: "AGAUAGCAAUAUUACGAUCA"
Response: Criterion met

Request: Tell me whether self-splicing fitness (ln) is at least -2 here: "UGUAAGCAAUAUUACGGAAA"
Response: Criterion met

Request: Tell me whether self-splicing fitness (ln) is at least -2 here: "CGGCAGCAAUAUUACGCUCC"
Response: Criterion not met

Request: Tell me whether self-splicing fitness (ln) is at least -2 here: "GGCAAGCAAUAUUACGCUUG"
Response: Criterion not met

Request: Tell me whether self-splicing fitness (ln) is at least -2 here: "GACCAGCAAUAUUACGCAAG"
Response: Criterion met

Request: Tell me whether self-splicing fitness (ln) is at least -2 here: "GUCCAGCAAUAUUACGUACA"
Response: Criterion met
